src = the RNAGym collection of RNA variant scans (doi:10.1093/molbev/msab373)

B1: Azoarcus group I ribozyme (parent)
chain: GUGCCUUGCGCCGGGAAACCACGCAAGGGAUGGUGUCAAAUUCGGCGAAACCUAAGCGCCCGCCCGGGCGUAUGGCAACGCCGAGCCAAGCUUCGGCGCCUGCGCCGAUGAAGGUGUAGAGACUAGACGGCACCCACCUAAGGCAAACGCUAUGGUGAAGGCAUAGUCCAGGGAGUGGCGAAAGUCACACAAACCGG

# Variants of: B1
# procedure summary: reverse-splicing fitness (ratio to wild type); higher = more active; in vitro selection; Mg2+ level not given
value type: reverse-splicing fitness
Answer with the value's number alone.

Before answering, review these 6 worked examples.
A111C A120U A145C C150G U176G	0.00459
C82U A111G A145G C150G C169A U176A	0.012
C82G A111U A120U A145G C150U U176C	0.0151
C82G A111G A120C A145C C169U U176A	0.0142
C82U A111G A120C A145G C150U C169A	0.00939
C82A A111G A120C A145U C150U C169U U176C	0.0124

Req: Looking for the measured reverse-splicing fitness of C82G A120G A145U C150A C169G U176A , can you help?
Resp: 0.0132

Req: Item under review: C82G A120C A145C C150G C169A U176C . Reported reverse-splicing fitness?
Resp: 0.00752

Req: Give its reverse-splicing fitness value. Item: C82U A111C A145U C150U C169U
Resp: 0.0107

Req: Look up reverse-splicing fitness for this variant: C82A A111G A120C A145G U176G
Resp: 0.00889

Req: # query: reverse-splicing fitness of entry C82U A111G A145G C150G C169A
Resp: 0.00883

Req: For the variant C82U A111C A120G A145U C169U U176C , what reverse-splicing fitness is on record?
Resp: 0.0112

Req: For the variant shown here, C82A A120U A145U C150U C169A U176A , give the reported reverse-splicing fitness.
Resp: 0.00275

Req: Please give the measured reverse-splicing fitness for this variant: C82U A111G A120U A145C C150G C169U U176A
Resp: 0.00227
